System: RAW-Dual (murine macrophage reporter line)
Protocol Notes: IRF reporter (Lucia luciferase) activity fold change vs agonist alone; higher = enhanced IRF activity
Assay Context: modulator concentration 10 µM; agonist: MPLA […]
Endpoint Name: IRF reporter
Could you respond with only the numeric value?

1. NC(=O)CN1CC(O)CC1=O (stereo not given)
0.954
2. CCC1(c2ccc(N)cc2)CCC(=O)NC1=O (stereo not given)
0.939
3. O=C(NCCN1CCOCC1)c1ccc(Cl)nc1
1.09
4. COC(=O)C1C2C(=O)N(c3ccccc3)C(=O)C12c1ccc(Cl)cc1 (stereo not given)
1.08
5. O=c1[nH]c2ccccc2n1CCCN1CCC(n2c(=O)[nH]c3cc(Cl)ccc32)CC1
1.12

Lab note: O=C1NC(=O)N(c2ccccc2F)C(=O)C1=Cc1cc(Cl)ccc1OCc1ccc([N+](=O)[O-])cc1 gave IRF reporter of 0.855

Lab note: O=C1NC(=O)C(=Cc2cccn2-c2ccc(Br)cc2)C(=O)N1 gave IRF reporter of 0.844

Lab note: COc1ccc(CN2CCNCC2)c(OC)c1OC.Cl.Cl gave IRF reporter of 1.27

----------
Tested on: RAW-Dual (murine macrophage reporter line)
Protocol Notes: viability score (confluency relative to resting cells, overnight) (fraction); higher = more viable, active = viable (0.7 or more)
Assay Context: modulator concentration 10 µM
Endpoint Name: viability score
Could you respond with only the numeric value?

Below, each entry is followed by its recorded viability score result.
1) Nc1nc(N)nc(NC2CC2)n1
0.987
2) Br.CN1C2CC(OC(=O)C(CO)c3ccccc3)CC1C1OC12 (stereo unspecified)
0.985
3) COc1cc([C@@H]2c3cc4c(cc3[C@H](O)[C@H]3COC(=O)[C@H]23)OCO4)cc(OC)c1OC
0.721
4) COc1ccc(OC)c(C=C2C(=O)NC(=O)NC2=O)c1
0.995

Lab note: COc1cc2c(c(OC)c1OC)-c1ccc(O)c(=O)cc1C(NC(C)=O)CC2 (stereo unspecified) gave viability score of 0.754

Lab note: COc1ccccc1N1C(=O)C(=Cc2ccc(C)s2)C(=O)NC1=S gave viability score of 0.992

Lab note: CCNCC.O=C(O)Cc1ccccc1Nc1c(Cl)cccc1Cl gave viability score of 0.993

Lab note: CC12CCC3C(CCC4CC(O)CCC43C)C1CCC2=O (stereo unspecified) gave viability score of 1.01

Lab note: CN1Cc2c(ccc3c2OCO3)C2C(O)Cc3cc4c(cc3C21)OCO4 (stereo unspecified) gave viability score of 0.883

Lab note: O=C1NC(=O)C(=CNc2cccc(O)c2)C(=O)N1 gave viability score of 1.01

Lab note: COc1cc(C2c3cc4c(cc3C(O)C3COC(=O)C23)OCO4)cc(OC)c1OC (stereo unspecified) gave viability score of 0.967

----------
Test system: RAW-Dual (murine macrophage reporter line)
Protocol Notes: IRF reporter (Lucia luciferase) activity fold change vs agonist alone; higher = enhanced IRF activity
Assay Context: modulator concentration 10 µM; agonist: LPS 0.1 ug/mL
Endpoint Name: IRF reporter
Could you respond with only the numeric value?

Below, each entry is followed by its recorded IRF reporter result.
1) CC(C)=CCOc1c2occc2cc2ccc(=O)oc12
1.47
2) ClC(Cl)=C(c1ccc(Cl)cc1)c1ccc(Cl)cc1
1.12
3) CCC1(c2c[nH]cn2)Cc2ccccc2C1.Cl
1.25
4) O=C1CCC(=O)N1C1CC2CCC(C1)N2C(=O)Cc1cccc2ccccc12 (stereo unspecified)
1.25
5) Cc1cccc(COc2ccc(C=C3C(=O)NC(=S)NC3=O)cc2)c1
0.992

Attention now turns to another entry.
Lab note: CCOC(=O)c1ccccc1-c1ccc(C=C2C(=O)NC(=O)N(c3ccccc3C)C2=O)o1 gave IRF reporter of 0.631

----------
Test system: RAW-Dual (murine macrophage reporter line)
Protocol Notes: NF-kB reporter (SEAP) activity fold change vs agonist alone; higher = enhanced NF-kB activity
Assay Context: modulator concentration 10 µM; agonist: LPS 0.1 ug/mL
Kind request: treat 0.9 as inclusive, so NF-kB reporter at 0.9 or higher is 1.0, anything lower is 0.0.

## Task Is the recorded value of NF-kB reporter equal to or greater than 0.9 for this molecule? COc1ccc(C(CN(C)C)C2(O)CCCCC2)cc1 (centres undefined)
## Result 1.0

## Task Is the recorded value of NF-kB reporter equal to or greater than 0.9 for this molecule? Cc1cc(C(=O)N2C3CCC2c2cncnc2C3)n(C)n1 (centres undefined)
## Result 1.0

## Task Is the recorded value of NF-kB reporter equal to or greater than 0.9 for this molecule? O=C1CCC(=O)N1C1CC2CCC(C1)N2C(=O)Cc1cccc2ccccc12 (centres undefined)
## Result 1.0

## Task Is the recorded value of NF-kB reporter equal to or greater than 0.9 for this molecule? Br.CN1C2CC(OC(=O)C(CO)c3ccccc3)CC1C1OC12 (centres undefined)
## Result 1.0

----------
Tested on: RAW-Dual (murine macrophage reporter line)
Protocol Notes: IRF reporter (Lucia luciferase) activity fold change vs agonist alone; higher = enhanced IRF activity
Assay Context: modulator concentration 10 µM; agonist: LPS 0.1 ug/mL
Form field: IRF reporter (one value per entry).

Below, each entry is followed by its recorded IRF reporter result.
1) CCOC(=O)c1ccccc1-c1ccc(C=C2C(=O)NC(=O)N(c3ccc(C)cc3)C2=O)o1
1.4
2) CC(=O)OC1CCC2(C)C(=CCC3C4CCC(=O)C4(C)CCC32)C1 (stereo not drawn)
1.08
3) Br.CN1C2CC(OC(=O)C(CO)c3ccccc3)CC1C1OC12 (stereo not drawn)
1.19
4) O=c1[nH]c2ccccc2n1CCCN1CCC(n2c(=O)[nH]c3cc(Cl)ccc32)CC1
1.31
5) O=C1NC(=O)C(C(CC(=O)c2ccccc2)c2ccccc2)C(=O)N1 (stereo not drawn)
1.02

Attention now turns to another entry.
Lab note: CC(C(O)c1ccccc1)N(C)C (stereo not drawn) gave IRF reporter of 1.26

----------
Tested on: RAW-Dual (murine macrophage reporter line)
Protocol Notes: viability score (confluency relative to resting cells, overnight) (fraction); higher = more viable, active = viable (0.7 or more)
Assay Context: modulator concentration 10 µM
Please assign f whenever viability score is at or above 1, and t whenever it is below.

These solved cases illustrate the format of a correct answer.
1) CCOC(=O)c1ccccc1-c1ccc(C=C2C(=O)NC(=O)N(c3ccc(C)cc3)C2=O)o1
t
2) COc1cc2c(c(OC)c1OC)-c1ccc(OC)c(=O)cc1C(NC(C)=O)CC2 (stereo not drawn)
t
3) COc1ccc2c(c1O)-c1c(OC)c(OC)cc3c1C(C2)N(C)CC3 (stereo not drawn)
f
4) CCCC(=O)c1ccc(N2CCNCC2)c(F)c1
t
5) ClC(Cl)=C(c1ccc(Cl)cc1)c1ccc(Cl)cc1
t

## Task Would you kindly verify if viability score of Clc1cccc(CNCCc2c[nH]c3ccccc23)c1 is strictly less than 1?
## Result t

----------
Test system: RAW-Dual (murine macrophage reporter line)
Protocol Notes: IRF reporter (Lucia luciferase) activity fold change vs agonist alone; higher = enhanced IRF activity
Assay Context: modulator concentration 10 µM; agonist: 3'3'-cGAMP 10 ug/mL
Kind request: treat 0.9 as inclusive, so IRF reporter at 0.9 or higher is true (1), anything lower is false (0).

## Task Is the recorded value of IRF reporter equal to or greater than 0.9 for this compound? C1=C(c2c[nH]c3ccccc23)CCNC1
## Result false (0)

## Task Is the recorded value of IRF reporter equal to or greater than 0.9 for this compound? Nc1ccncc1
## Result false (0)

## Task Is the recorded value of IRF reporter equal to or greater than 0.9 for this compound? Cc1ccc(-c2nn(-c3ccccc3)cc2C=C2C(=O)NC(=S)NC2=O)o1
## Result true (1)

## Task Is the recorded value of IRF reporter equal to or greater than 0.9 for this compound? O=C1NC(=O)C(=CNc2cccc(O)c2)C(=O)N1
## Result true (1)

## Task Is the recorded value of IRF reporter equal to or greater than 0.9 for this compound? COc1ccc2c3c([nH]c2c1)C(C)=NCC3
## Result false (0)

## Task Is the recorded value of IRF reporter equal to or greater than 0.9 for this compound? Cc1cccc2sc(NC(=O)c3cccn(Cc4ccc(Br)cc4)c3=O)nc12
## Result true (1)

## Task Is the recorded value of IRF reporter equal to or greater than 0.9 for this compound? CC(=O)C1CCC2C3CCC4CC(O)CCC4(C)C3CCC12C (configuration not stated)
## Result false (0)

## Task Is the recorded value of IRF reporter equal to or greater than 0.9 for this compound? CCn1cc(C(=O)O)c(=O)c2c(N)c(F)c(N3CCNCC3)c(F)c21
## Result true (1)

## Task Is the recorded value of IRF reporter equal to or greater than 0.9 for this compound? O=C1NC(=O)C(C(CC(=O)c2ccccc2)c2ccccc2)C(=O)N1 (configuration not stated)
## Result true (1)
